- tested target: PLK1 (Homo sapiens, UniProt P53350)
- Construct: recombinant
- Sequence (P53350 2-603): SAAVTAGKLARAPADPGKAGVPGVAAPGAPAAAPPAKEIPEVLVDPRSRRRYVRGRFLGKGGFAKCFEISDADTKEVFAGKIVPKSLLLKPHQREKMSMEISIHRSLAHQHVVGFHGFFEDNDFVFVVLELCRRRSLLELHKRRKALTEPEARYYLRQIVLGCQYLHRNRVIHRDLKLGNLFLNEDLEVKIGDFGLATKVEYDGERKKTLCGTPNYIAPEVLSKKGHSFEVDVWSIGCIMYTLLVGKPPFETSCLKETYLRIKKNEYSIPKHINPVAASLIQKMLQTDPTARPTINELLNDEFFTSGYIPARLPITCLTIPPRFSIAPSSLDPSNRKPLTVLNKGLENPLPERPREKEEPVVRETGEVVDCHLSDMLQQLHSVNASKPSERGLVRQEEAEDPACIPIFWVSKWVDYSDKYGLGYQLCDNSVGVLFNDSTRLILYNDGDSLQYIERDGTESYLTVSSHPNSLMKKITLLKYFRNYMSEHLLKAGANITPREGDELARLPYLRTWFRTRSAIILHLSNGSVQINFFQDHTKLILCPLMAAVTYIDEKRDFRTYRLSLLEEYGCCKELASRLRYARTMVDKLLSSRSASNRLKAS
- test name: in vitro kinase assay
pIC50: −log10 of the molar value.
observed property: pIC50

Assign pIC50 to the following record: CC[C@H](Nc1nc(NCc2cccnc2)c2ncn(C(C)C)c2n1)[C@@H](C)O
< 5.00

---

- tested target: ERK2 (Homo sapiens)
- Construct: recombinant
- Sequence (P28482 2-360): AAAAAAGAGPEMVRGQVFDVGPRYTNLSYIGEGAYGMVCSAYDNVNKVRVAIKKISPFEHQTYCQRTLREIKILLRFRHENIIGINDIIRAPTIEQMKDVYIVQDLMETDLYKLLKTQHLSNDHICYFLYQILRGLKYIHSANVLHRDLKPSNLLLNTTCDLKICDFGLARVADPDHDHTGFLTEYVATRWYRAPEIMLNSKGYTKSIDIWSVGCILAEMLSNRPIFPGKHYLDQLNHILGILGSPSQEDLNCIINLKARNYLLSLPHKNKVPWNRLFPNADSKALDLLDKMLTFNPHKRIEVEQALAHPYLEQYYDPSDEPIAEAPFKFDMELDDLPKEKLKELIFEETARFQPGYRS
- test name: in vitro kinase assay
observed property: IC50

Assign IC50 to the following record: CC[C@H](Nc1nc(NCc2cccnc2)c2ncn(C(C)C)c2n1)[C@@H](C)O
> 10 µM

---

- tested target: CDK5/p35 (Homo sapiens, UniProt Q00535)
- Construct: recombinant complex, Invitrogen Select Screen service
- Sequence (Q00535 whole entry): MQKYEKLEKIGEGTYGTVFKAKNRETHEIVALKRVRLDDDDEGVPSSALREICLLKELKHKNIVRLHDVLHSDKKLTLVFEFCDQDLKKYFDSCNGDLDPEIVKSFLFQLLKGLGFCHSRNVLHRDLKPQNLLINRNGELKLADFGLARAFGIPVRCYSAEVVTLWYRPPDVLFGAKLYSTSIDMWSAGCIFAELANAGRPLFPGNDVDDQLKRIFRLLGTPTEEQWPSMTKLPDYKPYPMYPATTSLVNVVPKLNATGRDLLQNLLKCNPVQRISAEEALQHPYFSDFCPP
- Sequence (Q15078 2-307 partner): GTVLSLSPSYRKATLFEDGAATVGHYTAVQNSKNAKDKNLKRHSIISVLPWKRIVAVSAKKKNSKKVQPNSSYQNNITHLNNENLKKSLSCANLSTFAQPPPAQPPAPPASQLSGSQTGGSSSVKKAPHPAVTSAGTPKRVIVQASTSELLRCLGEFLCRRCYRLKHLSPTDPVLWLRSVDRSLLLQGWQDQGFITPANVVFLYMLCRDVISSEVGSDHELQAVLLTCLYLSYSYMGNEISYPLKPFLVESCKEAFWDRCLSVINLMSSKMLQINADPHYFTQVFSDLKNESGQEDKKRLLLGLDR
- test name: Invitrogen Select Screen kinase assay
- condition details: read-out: CCT068127 Mean IC50 (μmol.L^-1) ± SE; mean of two determinations
observed property: pIC50
When answering, recall that pIC50 equals minus log10 of the concentration in mol/L, and write that number alone.

Assign pIC50 to the following record: CC[C@H](Nc1nc(NCc2cccnc2)c2ncn(C(C)C)c2n1)[C@@H](C)O [CCT068127]
7.15

---

- tested target: AURKA (Homo sapiens)
- Construct: recombinant
- Sequence (O14965 whole entry): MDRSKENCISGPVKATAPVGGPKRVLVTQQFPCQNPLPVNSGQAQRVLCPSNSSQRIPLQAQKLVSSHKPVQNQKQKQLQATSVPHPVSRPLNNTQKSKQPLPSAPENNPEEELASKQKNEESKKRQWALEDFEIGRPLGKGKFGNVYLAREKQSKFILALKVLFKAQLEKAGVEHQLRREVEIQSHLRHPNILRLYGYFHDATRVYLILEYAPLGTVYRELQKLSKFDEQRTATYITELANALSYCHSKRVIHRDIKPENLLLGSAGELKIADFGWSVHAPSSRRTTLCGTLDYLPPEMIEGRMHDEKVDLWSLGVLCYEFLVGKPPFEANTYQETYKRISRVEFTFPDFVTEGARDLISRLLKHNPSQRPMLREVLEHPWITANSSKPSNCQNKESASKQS
- test name: in vitro kinase assay
observed property: IC50

Assign IC50 to the following record: CC[C@H](Nc1nc(NCc2cccnc2)c2ncn(C(C)C)c2n1)[C@@H](C)O [CCT068127]
> 10 µM

---

- tested target: CDK1/B (CDK1/cyclin B) (Homo sapiens, UniProt P06493)
- Construct: recombinant human kinase complex; with G2/mitotic-specific cyclin-B1
- Sequence (P06493 whole entry): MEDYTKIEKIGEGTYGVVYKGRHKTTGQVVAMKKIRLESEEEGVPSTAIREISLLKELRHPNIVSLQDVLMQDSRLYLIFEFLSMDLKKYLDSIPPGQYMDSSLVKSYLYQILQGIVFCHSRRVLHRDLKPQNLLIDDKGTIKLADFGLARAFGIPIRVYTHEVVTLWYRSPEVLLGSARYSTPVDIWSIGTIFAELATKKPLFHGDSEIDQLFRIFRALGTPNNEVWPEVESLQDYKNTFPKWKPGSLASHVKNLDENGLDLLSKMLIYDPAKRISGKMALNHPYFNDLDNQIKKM
- Sequence (P14635 whole entry partner): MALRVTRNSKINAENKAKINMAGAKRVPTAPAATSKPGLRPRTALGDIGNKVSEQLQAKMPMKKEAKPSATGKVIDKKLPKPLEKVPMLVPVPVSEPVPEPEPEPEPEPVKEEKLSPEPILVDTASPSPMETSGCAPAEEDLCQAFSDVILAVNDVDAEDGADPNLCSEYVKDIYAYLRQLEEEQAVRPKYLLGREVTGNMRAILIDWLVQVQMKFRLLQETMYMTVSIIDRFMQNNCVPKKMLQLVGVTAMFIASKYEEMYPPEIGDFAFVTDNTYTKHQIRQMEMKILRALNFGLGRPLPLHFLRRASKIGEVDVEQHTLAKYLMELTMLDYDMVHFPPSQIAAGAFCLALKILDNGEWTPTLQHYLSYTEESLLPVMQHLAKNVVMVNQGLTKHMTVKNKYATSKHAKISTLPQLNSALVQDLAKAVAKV
- test name: in vitro kinase assay
- condition details: read-out: CCT068127 Mean IC50 (μmol.L^-1) ± SE; mean of three independent repeats
observed property: IC50 (µmol/L)
Give the value, in units of µmol/L, as a plain number.

Consider the molecule CC[C@H](Nc1nc(NCc2cccnc2)c2ncn(C(C)C)c2n1)[C@@H](C)O tested on CDK1/B (CDK1/cyclin B) (Homo sapiens, UniProt P06493); state its IC50.
1.1
